B1: CPEB3 Ribozyme (parent)
chain: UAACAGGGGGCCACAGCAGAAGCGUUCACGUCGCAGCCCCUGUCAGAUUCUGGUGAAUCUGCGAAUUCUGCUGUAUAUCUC

- Variants of: B1
- Test: self-cleavage, relative activity (ratio to wild type); higher = more cleavage; in vitro, sequencing
Label true when self-cleavage is at or above 0.6; otherwise label false.

>>> label_value("U1G U41A")
"false"
>>> label_value("C59U")
"true"
>>> label_value("U67C U72G")
"false"
>>> label_value("A3C A47G")
"true"
>>> label_value("G61C U74C")
"false"
>>> label_value("G8A U66C")
"false"
>>> label_value("A35G G42A")
"false"
>>> label_value("A5C G9U")
"false"
>>> label_value("C12G A18G")
"false"
>>> label_value("A35C U72G")
"false"
>>> label_value("G10A A28C")
"false"
>>> label_value("U60C U67A")
"false"
>>> label_value("C34G C68U")
"false"
>>> label_value("U26A A45G")
"true"
>>> label_value("U49A G63U")
"true"
>>> label_value("G8A C23A")
"false"
>>> label_value("C37U U67C")
"false"
>>> label_value("A13U U80C")
"true"
>>> label_value("G52C U80A")
"true"
>>> label_value("C37U A47U")
"false"
>>> label_value("G24C G30C")
"false"
>>> label_value("U49C C81U")
"true"
>>> label_value("C29A A65U")
"false"
>>> label_value("A57G U58C")
"false"
>>> label_value("A35G A47C")
"true"
>>> label_value("A3G A75G")
"true"
>>> label_value("C17A A18U")
"false"
>>> label_value("G52A U54G")
"true"
>>> label_value("G33A C40G")
"false"
>>> label_value("U1C U74C")
"true"
>>> label_value("A28G U58A")
"false"
>>> label_value("U25A U76A")
"false"
>>> label_value("C44A A77G")
"false"
>>> label_value("U60G U74C")
"true"
>>> label_value("A3G C68A")
"false"
>>> label_value("C12U A47G")
"true"
>>> label_value("G16A U26A")
"false"
>>> label_value("A5G A20C")
"false"
>>> label_value("U78C U80C")
"true"
>>> label_value("A45U A57U")
"false"
>>> label_value("A21G U69C")
"false"
>>> label_value("G8U C12U")
"false"
>>> label_value("C59A U74C")
"false"
>>> label_value("U43A U49A")
"true"
